assay_details: solubility of the compound represented by formula (1) in pH regulating solution, HPLC
Format: physicochemical
stated_conditions: aqueous with cosolvent or surfactant or cyclodextrin, thermodynamic from solid; pH 5.79; 50 mM citric acid pH regulator with sucrose and polyethylene glycol 600; 1 hour at 5° C.
assay_readout: solubility at 1 h

In one line, give reported solubility at 1 h of the entry CCC(O)C(C)C1OC1CC(C)(O)/C=C/C=C(\C)C1OC(=O)CC(O)CCC(C)(O)C(OC(=O)N2CCN(C3CCCCCC3)CC2)/C=C/C1C (stereo not shown) .
> 2440 µg/mL

----------
assay_details: solubility of the compound represented by formula (1) in pH regulating solution, HPLC
Format: physicochemical
stated_conditions: aqueous with cosolvent or surfactant or cyclodextrin, thermodynamic from solid; pH 7.04; 50 mM citric acid pH regulator with sucrose and polyethylene glycol 600; 1 hour at 5° C.
assay_readout: solubility at 1 h (µg/mL)
Your answer is read as µg/mL, so omit the unit and give the number.

In one line, give reported solubility at 1 h of the entry CCC(O)C(C)C1OC1CC(C)(O)/C=C/C=C(\C)C1OC(=O)CC(O)CCC(C)(O)C(OC(=O)N2CCN(C3CCCCCC3)CC2)/C=C/C1C (stereo not shown) .
1800
